- assay_protocol: In vivo pharmacokinetic studies
- Set-up: species or system CD-1 mice
- assay_context: male, CD-1, mouse, plasma, iv, 3 mg/kg
AUC(0-inf) overview
// units = ng·h/mL; emit number, no label

compound_smiles: CCn1cc(-c2cc(Cn3ccnc3)cc3c2CCN([C@@H](C)c2cc(OC)ccn2)C3=O)c(C(F)(F)F)n1
AUC(0-inf) [ng·h/mL]: 707

Exercise: What measured AUC(0-inf) goes with CCn1cc(-c2cc(Cn3ccnc3)cc3c2CCN([C@H](c2cc(C)ccn2)C2CC2)C3=O)c(C(F)(F)F)n1 ?
Solution: 1950

Exercise: What measured AUC(0-inf) goes with CCn1cc(-c2cc(Cn3ccnc3C)cc3c2CCN([C@H](c2cc(OC)ccn2)C2CC2)C3=O)c(C(F)(F)F)n1 ?
Solution: 1240

====

- assay_protocol: In vivo pharmacokinetic studies
- Design: species or system CD-1 mice
- assay_context: male, CD-1, mouse, plasma, iv, 3 mg/kg
quantity: Vd
Number first, unit second: that is the form wanted.

molecule: CCn1cc(-c2cc(Cn3ccnc3C)cc3c2CCN([C@H](c2cc(OC)ccn2)C2CC2)C3=O)c(C(F)(F)F)n1 [Compound 36]
Vd: 1.6 L/kg
//
molecule: CCn1cc(-c2cc(Cn3ccnc3)cc3c2CCN([C@@H](C)c2cc(OC)ccn2)C3=O)c(C(F)(F)F)n1 [Compound 38]
Vd: 2.3 L/kg

Now look at this entry.
Exercise: What measured Vd goes with CCn1cc(-c2cc(Cn3ccnc3)cc3c2CCN([C@H](c2cc(C)ccn2)C2CC2)C3=O)c(C(F)(F)F)n1 [Compound 41] ?
Solution: 1.6 L/kg

====

AUC(0-inf) overview
- assay_protocol: In vivo pharmacokinetic studies
- Set-up: species or system CD-1 mice
- assay_context: male, CD-1, mouse, plasma, po, 10 mg/kg
// units = ng·h/mL; emit number, no label

Worked cases, answers included:
compound_smiles: CCn1cc(-c2cc(Cn3ccnc3)cc3c2CCN([C@H](c2cc(C)ccn2)C2CC2)C3=O)c(C(F)(F)F)n1
scale_unit: ng·h/mL
AUC(0-inf): 3980
//
compound_smiles: CCn1cc(-c2cc(Cn3ccnc3)cc3c2CCN([C@@H](C)c2cc(OC)ccn2)C3=O)c(C(F)(F)F)n1
scale_unit: ng·h/mL
AUC(0-inf): 1710

Exercise: What measured AUC(0-inf) goes with CCn1cc(-c2cc(Cn3ccnc3C)cc3c2CCN([C@H](c2cc(OC)ccn2)C2CC2)C3=O)c(C(F)(F)F)n1 ?
Solution: 508

====

- Test system: MV4:11
- assay_protocol: Cell proliferation assay
- Type: cell-based
- assay_context: GI50,K562/GI50,MV4:11
quantity: Selectivity K562/MV4:11

Worked cases, answers included:
compound: COc1cc(CN2CCc3c(cc(Cn4cccc4)cc3-c3cn(C)nc3C(F)(F)F)C2=O)cc(OC)c1 [Compound 18]
value: >2
//
compound: COc1cc(CN2CCc3c(cc(Cn4ccnc4C(F)F)cc3-c3cn(C)nc3C(F)(F)F)C2=O)cc(OC)c1 [Compound 24]
value: >3
//
compound: COc1cc(CN2CCc3c(cc(Cn4cccn4)cc3-c3cn(C)nc3C(F)(F)F)C2=O)cc(OC)c1 [Compound 17]
value: >1
//
compound: CCn1cc(-c2cc(Cn3ccnc3)cc3c2CCN([C@H](c2cc(C)ccn2)C2CC2)C3=O)c(C(F)(F)F)n1 [Compound 41]
value: 290
//
compound: CCn1cc(-c2cc(Cn3ccnc3)cc3c2CCN([C@@H](C)c2cc(OC)ccn2)C3=O)c(C(F)(F)F)n1 [Compound 38]
value: 200

Now look at this entry.
Exercise: What measured Selectivity K562/MV4:11 goes with COc1cc(CN2CCc3c(cc(Cn4cnnc4)cc3-c3cn(C)nc3C(F)(F)F)C2=O)cc(OC)c1 [Compound 19] ?
Solution: >2
